Values from PubChem BioAssay (NCI)

# Tested on: UO-31 renal
# protocol-notes: NCI tumour cell line growth inhibition, 48 h
quantity-kind: GI50

Item O=C1/C(=C/c2ccc(C(F)(F)F)cc2)COc2ccc(O)cc21 with UO-31 renal - GI50? 1260 nM

Item C=C1C(=O)O[C@H]2[C@H]1CC/C(COC(=O)NCc1cccc(OC)c1)=C\CC[C@@]1(C)O[C@@H]21 with UO-31 renal - GI50? 1580 nM

Item COc1ccc2nc(C3=CN(C4OC(CO)C(O)C(O)C4O)C4C=CC=CC34)sc2c1 (stereo not given) with UO-31 renal - GI50? 41100 nM

Item CO[C@H]1/C=C/C[C@H](C)[C@@H](C)S(=O)(=O)NC(=O)c2ccc3c(c2)N(C[C@@H]2CC[C@H]21)C[C@@]1(CCCc2cc(Cl)ccc21)CO3 with UO-31 renal - GI50? 3190 nM

Item Clc1ccc2c(NCCN3CCN(c4ccnc(N5CCCC5)n4)CC3)ccnc2c1 with UO-31 renal - GI50? 1820 nM

Item Cc1[nH]ccc2cc3nc4ccccc4c3cc12 with UO-31 renal - GI50? 2020 nM

Item CCCCCCCCCCC(CN(CC)CC)C(O)c1ccccc1 (stereo not given) with UO-31 renal - GI50? 1560 nM

Item c1cc(-c2cnn3nc(N4CCOCC4)ccc23)nc(NC2CC2)n1 with UO-31 renal - GI50? 7120 nM

Item Cc1ccc(C(=O)Nc2ccccc2C(=O)N/N=C(\c2ccccc2)c2ccccn2)cc1 with UO-31 renal - GI50? 107 nM

Item C=CC1=C(C)C(Cc2[nH]c(/C=c3\[nH]/c(=C/C4=NC(=O)C(C)/C4=C\C)c(C)c3CCC(=O)O)c(CCC(=O)OC)c2C)NC1=O (stereo not given) with UO-31 renal - GI50? 18900 nM

---

# Test system: BT-549 breast
# protocol-notes: NCI tumour cell line growth inhibition, 48 h
In this section, each of the molecules is paired with its reported GI50.

smi: C=C(CN(CCN1CCOCC1)CC(=C)c1ccc(C(=O)Nc2ccccc2N)cc1)c1ccc(C(=O)Nc2ccccc2N)cc1
GI50: 8.56 µM

smi: Cc1cc(S(=O)(=O)Nc2nc3ccsc3c(=O)n2Cc2ccccc2)c(S)cc1Cl
GI50: 28 µM

smi: COc1ccc(Cn2cc3c(c2-c2ccccc2)CCc2cncnc2-3)cc1
GI50: 4.1 µM

smi: Clc1ccc2c(NCCN3CCN(c4ccnc(N5CCCC5)n4)CC3)ccnc2c1
GI50: 5.63 µM

GET /values?readout=GI50&item= CN(C)CCC(=O)NCc1c2nc3ccccc3nc2n2ccccc12 23.3 µM

GET /values?readout=GI50&item= CCNC(=O)CCCCC(=O)c1c(C)[nH]c(/C=C2\N=C(c3ccc[nH]3)C=C2OC)c1C 2.85 µM

GET /values?readout=GI50&item= Cc1cc(Cl)ccc1Nc1nc(C(F)(F)F)ccc1C(=O)N/N=C/c1ccc(N(C)C)cc1 0.624 µM

GET /values?readout=GI50&item= C=C1C(=O)O[C@H]2[C@H]1CC/C(COC(=O)NCc1cccc(OC)c1)=C\CC[C@@]1(C)O[C@@H]21 1.51 µM

GET /values?readout=GI50&item= CCN1CCN(c2nc(C)cc(N(CCCNc3ccnc4cc(Cl)ccc34)Cc3ccco3)n2)CC1 2.03 µM

GET /values?readout=GI50&item= c1cc(-c2cnn3nc(N4CCOCC4)ccc23)nc(NC2CC2)n1 8.15 µM

GET /values?readout=GI50&item= CCN1CCN(c2cc(C)nc(NCc3cc(Nc4ccnc5cc(Cl)ccc45)ccc3F)n2)CC1 5.36 µM
